# tgt: PAK4 kinase domain (PAK4 KD) (Homo sapiens (Human), UniProt O96013)
# Sequence (O96013 321-572): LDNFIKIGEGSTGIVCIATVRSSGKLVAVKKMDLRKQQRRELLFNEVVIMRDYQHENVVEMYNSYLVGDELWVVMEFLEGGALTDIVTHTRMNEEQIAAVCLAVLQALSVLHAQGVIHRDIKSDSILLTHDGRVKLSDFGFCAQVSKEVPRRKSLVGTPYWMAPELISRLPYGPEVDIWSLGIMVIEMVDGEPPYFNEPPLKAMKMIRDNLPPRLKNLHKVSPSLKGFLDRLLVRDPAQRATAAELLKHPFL
# test name: PAK4 kinase domain enzymatic assay (coupled PK/LDH, NADH absorbance at 340 nm)
# Type: biochemical
# measurement parameters: PAK4 kinase domain, 25 nM PAK4 KD, 0.04 mM ATP, pH 7.5
pKi: −log10 of the molar value.
measurement kind: pKi

{"molecule": "COc1ncc(F)c(Nc2n[nH]c3c2CN(C(=O)N[C@H](CN(C)C)c2ccccc2)C3(C)C)n1 [Example 66]", "measurement kind": "pKi", "result": 6.77}
{"molecule": "CN(C)C[C@@H](OC(=O)N1Cc2c(Nc3ccnc(C#N)n3)n[nH]c2C1(C)C)c1ccccc1 [Example 70]", "measurement kind": "pKi", "result": 8.06}
{"molecule": "CN(C)C[C@@H](NC(=O)N1Cc2c(Nc3ncnc4c3ncn4C)n[nH]c2C1(C)C)c1ccccc1 [Example 57]", "measurement kind": "pKi", "result": 6.03}
{"molecule": "CN(C)C[C@@H](OC(=O)N1Cc2c(Nc3ncncc3F)n[nH]c2C1(C)C)c1ccccc1 [Example 80]", "measurement kind": "pKi", "result": 6.92}
